Data origin, for the record: ChEMBL document CHEMBL1201862

- Assay target: Ataxin-2 (Homo sapiens) (UniProt Q99700)
- Sequence (Q99700 whole entry): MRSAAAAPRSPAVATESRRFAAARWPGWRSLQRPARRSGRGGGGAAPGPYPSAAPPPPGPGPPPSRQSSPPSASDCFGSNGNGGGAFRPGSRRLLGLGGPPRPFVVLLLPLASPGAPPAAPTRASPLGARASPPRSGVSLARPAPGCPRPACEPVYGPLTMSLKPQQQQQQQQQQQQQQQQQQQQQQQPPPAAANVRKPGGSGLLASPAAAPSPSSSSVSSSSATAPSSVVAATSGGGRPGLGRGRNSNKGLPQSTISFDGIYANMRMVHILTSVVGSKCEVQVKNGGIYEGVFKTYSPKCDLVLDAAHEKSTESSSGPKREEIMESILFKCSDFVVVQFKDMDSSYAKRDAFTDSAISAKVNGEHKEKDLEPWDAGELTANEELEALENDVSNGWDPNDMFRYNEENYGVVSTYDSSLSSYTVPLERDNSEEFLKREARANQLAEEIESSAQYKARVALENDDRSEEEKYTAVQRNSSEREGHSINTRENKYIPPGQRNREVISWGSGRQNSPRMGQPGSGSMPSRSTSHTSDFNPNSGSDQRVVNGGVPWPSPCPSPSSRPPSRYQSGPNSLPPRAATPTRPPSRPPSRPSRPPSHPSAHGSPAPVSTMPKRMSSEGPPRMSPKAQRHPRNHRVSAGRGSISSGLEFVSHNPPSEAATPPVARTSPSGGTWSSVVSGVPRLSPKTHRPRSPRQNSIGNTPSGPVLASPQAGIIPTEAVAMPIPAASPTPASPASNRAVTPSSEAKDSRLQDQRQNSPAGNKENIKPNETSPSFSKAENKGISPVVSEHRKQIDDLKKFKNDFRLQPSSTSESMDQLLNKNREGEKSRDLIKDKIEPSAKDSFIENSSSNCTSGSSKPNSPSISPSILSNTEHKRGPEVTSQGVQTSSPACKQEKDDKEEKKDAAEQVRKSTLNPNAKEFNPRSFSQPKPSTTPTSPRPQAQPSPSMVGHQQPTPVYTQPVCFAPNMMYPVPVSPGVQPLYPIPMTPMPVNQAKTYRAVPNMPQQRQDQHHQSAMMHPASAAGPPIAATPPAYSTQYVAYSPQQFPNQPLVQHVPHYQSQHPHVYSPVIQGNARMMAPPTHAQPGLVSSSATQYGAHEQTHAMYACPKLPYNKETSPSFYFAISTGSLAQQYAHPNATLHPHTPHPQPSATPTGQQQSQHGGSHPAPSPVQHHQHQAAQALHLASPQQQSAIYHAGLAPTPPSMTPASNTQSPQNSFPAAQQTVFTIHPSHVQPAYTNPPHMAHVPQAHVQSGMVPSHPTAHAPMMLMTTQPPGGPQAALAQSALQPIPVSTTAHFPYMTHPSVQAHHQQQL
- Assay protocol: qHTS for Inhibitors of ATXN expression.
- Format: functional
The whole screen tested about 400,000 compounds, of which about 2,100 (0.53%) were called active. About 14% were inconclusive and are not listed. No rule for the calls is given here. The sample holds actives, similar compounds and a random draw of the others, so the mix is not that of the screen.
Your reply should match one of these outcome classes. yes for active, no for inactive

Some solved cases for reference:
Cc1ccc(-c2nnn(CC(=O)N(c3cccc(F)c3)C(C(=O)NC(C)(C)C)c3ccco3)n2)o1 (configuration not stated) ... no
CCOc1ccc(NC(=O)c2cc3ccccc3cc2O)cc1 ... no
CNc1ccc2c3c(cccc13)C(=O)N(C)C2=O ... no
O=C(N/N=C/c1sc(=O)n(Cc2ccc(Br)cc2)c1Cl)c1ccco1 ... yes
COc1cccc(-c2c(C#N)c(O)nc3c2-c2ccc(OC)cc2CC3)c1 ... no
Oc1nc(N2CCOCC2)cc2ccccc12 ... no

Note: attention shifts to another entry.
# outcome recorded in this test, key = CCOc1ccc(NC(=O)/C(=C/Nc2ccccc2)C(C)=O)cc1
no

* * *

- Assay target: Ataxin-2 (Homo sapiens) (UniProt Q99700)
- Assay protocol: qHTS for Inhibitors of ATXN expression.
- Assay type: functional
Out of some 400,000 compounds screened, about 2,100 (0.53%) were called active. Not shown: some 14% with an inconclusive outcome. The rule behind the calls is not given here. For the sample, actives were picked, then their nearest neighbours and some compounds at random.
Your reply should match one of these outcome classes. active, inactive

CCOC(=O)C1CCN(C(=O)c2ccc(CNS(=O)(=O)c3ccc(OC)cc3)cc2)CC1 ... inactive

# outcome recorded in this test, key = O=C(NCc1ccccn1)C(=O)C1C(=O)Nc2ccccc21 (stereo not given)
inactive

Can you check O=C(O)c1ccc(N2C(=O)CC(SC(=NCc3ccc4c(c3)OCO4)Nc3ccc(F)cc3)C2=O)cc1 (stereo not given) next?
inactive

Can you check NSc1nc(N)c2nc(-c3ccccc3)c(-c3ccccc3)nc2n1 next?
inactive

Can you check CC(C)CC(N)c1csc(NC(=O)c2cc(C(C)(C)C)nn2Cc2ccccc2)n1 (stereo not given) next?
active

Can you check COc1ccc(OC)c(NC(=O)Nc2nc(C(N)CCc3ccccc3)cs2)c1 (stereo not given) next?
active

* * *

- Assay target: Ataxin-2 (Homo sapiens) (UniProt Q99700)
- Assay protocol: qHTS for Inhibitors of ATXN expression.
- Format: functional
In all, about 400,000 compounds went through this assay and about 2,100 (0.53%) were called active. Another 14% or so got no clear call; they are omitted. The rule behind the calls is not given here. This is one part of a sample in which actives are shown more often than they occur.
Your reply should match one of these outcome classes. true (1) = active, false (0) = inactive

Some solved cases for reference:
COC(=O)c1cc(N2CCN(C)CC2)nc2ccccc12 ... false (0)
CCCCCn1c(-c2cccc(C)c2)nc2ccccc21 ... true (1)
CCCn1c(CNC(=O)c2cccs2)nc2ccccc21 ... false (0)
CCn1c(C)nc2cc(C(=O)N/N=C(\C)c3ccccc3O)ccc21 ... false (0)
Cc1ccc(C(=O)NCCc2ccccc2)cc1N1CCCC1=O ... false (0)

# outcome recorded in this test, key = Cc1cccc(-n2cnc3cc(C(=O)NCCN4CCOCC4)ccc32)c1
false (0)
